# Test system: MDA-MB-468 breast
# experiment.notes: NCI-60 one-dose screen, 48 h
# assay.conditions: 10 µM unless noted
This is part of a sample that, as a whole, favours compounds with a hit. Of some 83,000 tested, about 20% had one in any assay. Active and inactive are the calls of the source. How the source made its calls: active means growth percent below 10; inactive means the rest.
I would appreciate it if you answered using one of these outcomes: yes (1) for active, no (0) for inactive

# input Test call for this molecule, please: CN(c1ncccc1CNc1nc(Nc2ccc3c(c2)CC(=O)N3)ncc1C(F)(F)F)S(C)(=O)=O
# output yes (1)

# input Request: C/C(=C(/c1ccc(O)cc1)c1ccc(OCCN2CCCC2)cc1)c1ccc(Cl)cc1
# output no (0)

# input Request: COc1ccc2[nH]c(=O)c(/C=N/Nc3nc(-c4ccccc4)cs3)c(O)c2c1
# output no (0)

# input Request: COc1cc(/C=C2\SC(=S)N(/C=C/c3nc4ccccc4[nH]c3=O)C2=O)cc(OC)c1OC
# output no (0)

###

# maps each entry to its growth
# Test system: MDA-MB-468 breast
# experiment.notes: NCI-60 one-dose screen, 48 h (100 = growth as untreated, 0 = no growth, -100 = all killed)
# assay.conditions: 10 µM unless noted
The panel holds about 83,000 compounds, 20% with a hit somewhere; the sample as a whole holds those more often.
Answer in %, number only, no unit symbol.

Answered cases to consult:
1) CCCCCc1cc[n+](CC(=O)c2ccc(Cl)cc2)cc1 :: 65.9
2) CNC(=O)c1cc(Oc2ccc3c(c2)sc2nc(-c4ccc(OC)cc4)cn23)ccn1 :: 16.8
3) CCNC(=S)N(Cc1ccccc1)Cc1ccccc1 :: 95.4
4) Oc1c(C(Nc2ccccc2)c2ccccc2)ccc2cccnc12 (stereo not given) :: 17.8
5) O=S(=O)(OCCO)c1ccccc1 :: 97
6) COc1ccc2c(c1)c(/C=N/Nc1ccnc3cc(Cl)ccc13)cn2C :: -87.3
7) CC1OC(n2c3ccccc3c3c4c(c5c6ccccc6[nH]c5c32)C(=O)N(CCN[C@@H]2CCC[C@H]2N)C4=O)CC(O)C1O (stereo not given in full) :: -26.9
8) CC(C)C1=C[C@@]23CC[C@H]4[C@](C)(COCCC#N)CCC[C@]4(C)[C@H]2C[C@@H]1[C@@H]1[C@H]3[C@@H](OCCC#N)CC[C@@H]1OCCC#N :: -4.51
9) COc1ccccc1CNc1c2ccccc2nc2ccccc12 :: 28.3

Could you now look at the following molecule, please?
# input Please look up its growth: COC(=O)c1ccc2oc(NC(=O)c3ccc(N4CCOCC4)c([N+](=O)[O-])c3)nc2c1
# output 113

###

# System: MDA-MB-468 breast
# experiment.notes: NCI-60 one-dose screen, 48 h (100 = growth as untreated, 0 = no growth, -100 = all killed)
# assay.conditions: 10 µM unless noted
Compounds without any hit were thinned out: in the full panel of roughly 83,000, 20% have a hit.
# maps each entry to its growth
Answer in %, number only, no unit symbol.

1. CSCCCNC(=O)c1ccc2c(c1)/C(=C/c1[nH]c(C)cc1C)C(=O)N2 :: 42.7
2. Cc1ccc(-c2nc3ccc(Cl)cn3c2NC2CCCCC2)o1 :: 78.2
3. CN1C(=O)/C(=C/C=C/c2ccco2)SC1=S :: 5.83

Could you now look at the following compound, please?
# input Please look up its growth: O=C(O)CCCCCCCCCCCCCCC(=O)O
# output 95.6

###

# System: KM12 colon
# experiment.notes: NCI-60 one-dose screen, 48 h (100 = growth as untreated, 0 = no growth, -100 = all killed)
# assay.conditions: 10 µM
This is part of a sample that, as a whole, favours compounds with a hit. Of some 83,000 tested, about 20% had one in any assay.
Entry flag: Yes if growth reaches 70%; No if it does not.

1) COc1cc(C2CC(c3ccccc3)=Nc3c(N)nc(N)nc3N2)ccc1Oc1nc(NCCO)nc(N2CCOCC2)n1 (stereo not drawn) :: Yes
2) COc1ccc(C(=O)COc2ccc(NC(=O)Nc3ccc(Cl)c(C(F)(F)F)c3)cc2)cc1 :: No
3) COc1ccc(C(=O)COc2ccc(NC(=O)Nc3ccccc3)cc2)cc1 :: Yes
4) Cn1cc(-c2cc(N)n3nc(-c4cn(C)c5ccccc45)cc3n2)c2cc(F)ccc21 :: No
5) Cc1cc(N=C2NC(=O)/C(=C/c3cc(C(C)(C)C)c(O)c(C(C)(C)C)c3)S2)n[nH]1 :: No
6) C#C[C@]1(O)CC[C@H]2[C@@H]3CC=C4c5sc(Nc6ccc(C(F)(F)F)cn6)nc5CC[C@]4(C)[C@H]3CC[C@@]21C :: No
7) C#C[C@]1(O)CC[C@H]2[C@@H]3CC=C4c5sc(Nc6cc(C)cc(C)n6)nc5CC[C@]4(C)[C@H]3CC[C@@]21C :: No
8) O=C(CN1CCN(c2ncnc3c2cnn3-c2ccccc2)CC1)Nc1ccc(Cl)cc1 :: No
9) COc1cccc(C(=O)CSc2nc(-c3ccc(OCc4ccccc4)c(OC)c3)c(C#N)c(=O)[nH]2)c1 :: Yes
10) O=C(Nc1ccc(OCc2ccc(F)cc2)cc1)Nc1ccc(Cl)c(C(F)(F)F)c1 :: No

Field: next molecule
# input API: above_or_equal(metric=growth, cutoff=70%) for item COc1cc(-c2nc3ccc(C)cc3[nH]2)ccc1OCc1nnc(-c2ccccc2Br)o1
# output No

###

# maps each entry to its growth
# Test system: MDA-MB-468 breast
# experiment.notes: NCI-60 one-dose screen, 48 h (100 = growth as untreated, 0 = no growth, -100 = all killed)
# assay.conditions: 10 µM unless noted
The panel holds about 83,000 compounds, 20% with a hit somewhere; the sample as a whole holds those more often.
Answer in %, number only, no unit symbol.

Answered cases to consult:
1) COC(=O)[C@]12CC[C@@H](C)[C@H](C)[C@@H]1C1=CC[C@@H]3[C@@]4(C)C[C@@H](OC(C)=O)[C@H](O)[C@@](C)(CO)[C@@H]4[C@H](O)C[C@@]3(C)[C@]1(C)CC2 :: -90.6
2) C#C[C@@]1(O)[C@@H](CO)O[C@@H](n2cc(Cl)c3c(N)ccnc32)[C@@H]1O :: 72.3
3) CCCCCCCCOC(=O)C(C)OC(=O)OCCOCCOC(=O)OC(C)C(=O)OCCCCCCCC (centres undefined) :: 98.6
4) C=C1C(=O)O[C@H]2[C@H]1CC/C(COC(=O)NCc1cc3ccccc3[nH]1)=C\CC[C@@]1(C)O[C@@H]21 :: 19.3
5) O=C1/C=C/[C@@H](O)[C@@H]2C[C@@H](O)C[C@H]2/C=C/CCC[C@H](CCc2ccc3ncccc3c2)O1 :: -5.95

# input Please look up its growth: O=C(/C=C/c1csc(Br)n1)NO
# output 19

# input Request: COC(=O)c1ccc(NC(N)=NCC(C)(C)COc2ccc(C(F)(F)F)cc2)nc1
# output 17.1

# input Request: Cc1ccc(/C=C(\C#N)n2nnc3cc(F)c(F)cc32)cc1
# output 17.3

# input Request: O=C1COc2ccccc2C(=O)N1CCCCNc1ccccc1
# output 94.5

###

# Tested on: MDA-MB-468 breast
# experiment.notes: NCI-60 one-dose screen, 48 h (100 = growth as untreated, 0 = no growth, -100 = all killed)
# assay.conditions: 10 µM unless noted
About 83,000 compounds went through this panel and 20% of them were active in at least one assay; those are over-represented in the sample as a whole.
Consider the reported growth of an entry and match it to a band in lowest (below -20%), middle (-20% to below 40%), highest (40% or more)

Examples with answers:
1) CCN1CCN(c2cc(C)c3cc(NC(=O)c4ccc(OC)c(OC)c4)ccc3n2)CC1 :: middle
2) COc1ccc2[nH]cc(-c3cc(N)n4nc(-c5c[nH]c6ccc(OC)cc56)cc4n3)c2c1 :: lowest
3) N#Cc1c(Nc2ccc(N3CCOCC3)cc2)nc(SCC(=O)c2ccc(Br)cc2)nc1-c1ccccc1 :: highest
4) CCc1cc2c(cc1Cl)nc1c(=O)[nH]c(=O)nc-1n2CCOCC(C)(C)C :: highest

# input Quick check: band for COc1cccc(Cn2c(-c3nonc3NC(C)=O)nc3ccccc32)c1
# output middle

# input Request: N#Cc1c(-c2ccc(Cl)cc2)nc(SCc2ccc(F)cc2)nc1N1CCNCC1
# output lowest

# input Request: O=C(CCCCCCN1CC(=O)N2[C@@H](c3ccccc3Br)c3[nH]c4ccccc4c3C[C@H]2C1=O)NO
# output middle

# input Request: N#CN1CCC[C@H]1C(=O)N1CCc2c(-c3[nH]nc4ncccc34)cccc21
# output middle

# input Request: c1ccc(-c2ccc(-c3nc4ccccc4[nH]3)cc2)cc1
# output highest

###

# Tested on: MDA-MB-468 breast
# experiment.notes: NCI-60 one-dose screen, 48 h (100 = growth as untreated, 0 = no growth, -100 = all killed)
# assay.conditions: 10 µM unless noted
This is part of a sample that, as a whole, favours compounds with a hit. Of some 83,000 tested, about 20% had one in any assay.
readout.name: growth (%)
Answer in %, number only, no unit symbol.

Answered cases to consult:
1. C[C@H]1[C@H](C)CC[C@]2(C(=O)OCCOCCOCC[P+](c3ccccc3)(c3ccccc3)c3ccccc3)CC[C@]3(C)C(=CC[C@@H]4[C@@]5(C)CC[C@H](OC(=O)C(Cl)Cl)C(C)(C)[C@@H]5CC[C@]43C)[C@H]12 :: -21.5
2. CCCCCCN(CCCCCC)CCC(=O)Nc1ccc(S(=O)(=O)c2ccc(NC(=O)CCN(CCCCCC)CCCCCC)cc2)cc1 :: 92.9
3. COC(=O)c1c[n+]([O-])ccc1OC :: 106
4. NC(=O)NN=C(C1CC1)C1CC1 :: 119
5. Cc1cc(N2CCN(C)CC2)nc(N(CCNc2ccnc3cc(Cl)ccc23)Cc2ccco2)n1 :: 37.5

# input GET /values?readout=growth&system=MDA-MB-468 breast&item= C=C(c1ccc(C(=O)O)c(F)c1)c1cc2c(cc1C)C(C)(C)C=CC2(C)C
# output 93.8

# input Request: CCC[S@@](=O)c1ccc2nc(NC(=O)OC)[nH]c2c1
# output 68.5

# input Request: COc1cc(-c2ccc(N=Nc3ccc4c(S(=O)(=O)O)ccc(N)c4c3O)c(OC)c2)ccc1N=Nc1ccc2c(S(=O)(=O)O)ccc(N)c2c1O
# output 120
